Procedure Text: RPMI8226 myeloma cell viability, profiling panel, resazurin fluorescence, basal, 24 h, PK04 Diversity Set (AID 1180);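 note: RPMI8826 multiple myeloma cell line at 5000 cells per well; test concentration not given here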
Condition Notes: higher = more signal
Observation Type: z-score

INSERT INTO results (compound, result) VALUES
  ('C=C(/C(=C/C[C@@H](OC(C)=O)c1ccc(OCCO)cc1)c1cc(C(=O)OC)ccc1OC)C(C)C', -0.161),
  ('C=CCC(OC(C)=O)[C@@H]1[C@@H](N(Cc2ccc(-c3cccc(C(F)(F)F)c3)o2)C(=O)c2ccc(C)cc2)c2cc(OCCCO)ccc2N1C(=O)Cc1ccc(OC)cc1 (some centres undefined)', 1.11),
  ('CC(=O)n1cc(C(O)C2C=CC3C(=O)N(c4ccccc4)C(=O)C3N2Nc2ccc(C(C)C)cc2)c2ccccc21 (centres undefined)', -1.06),
  ('COc1cc(NN2C(C(O)C3CCCCC3)C=CC3C(=O)N(c4ccccc4)C(=O)C32)cc(OC)c1OC (centres undefined)', -1.67);

---

Procedure Text: basal HepG2 mitochondrial membrane potential changes, profiling panel, cell-based, JC-1 fluorescence, 24 h, 100 nL compound (AID 1167); note: test concentration not given here
Condition Notes: higher = more signal
Threshold rule: z-score greater than or equal to 1 is Condition met; below that, Condition not met.

INSERT INTO results (line_notation, class_label) VALUES
  ('COC(=O)[C@@]1(Cc2ccc(F)cc2)[C@H]2c3cc(C(=O)N4CCCC4)n(C)c3C[C@H]2CN1C(=O)c1ccccc1', 'Condition met'),
  ('COCC1=C2[C@@H](CCc3ccccc3)OB(O)C[C@@H]2[C@@H]2C(=O)N(C)C(=O)[C@@H]2C1', 'Condition not met'),
  ('O=C1c2ccccc2[C@](Cc2ccccc2I)(C(=O)NC2CC2)[C@H](c2ccc(CO)cc2)N1Cc1ccccc1C(F)(F)F', 'Condition not met'),
  ('CN(C)CCCNC(=O)[C@@H]1c2ccccc2C(=O)N(C2CCCCC2)[C@H]1c1ccc(CO)cc1', 'Condition met'),
  ('CCOC(=O)C[C@H]1[C@H](OC(=O)c2ccc(-c3ccccc3)cc2)[C@@H](NC(=O)CC(C)C)c2cc(OCCCO)ccc2N1C(=O)c1ccccc1', 'Condition met'),
  ('COC(=O)C(CC#Cc1ccc2c(c1)[C@]1(C(=O)N2)[C@H](c2ccc(O)cc2)N2[C@H](c3ccccc3)[C@H](c3ccccc3)OC(=O)[C@H]2[C@@H]1C(=O)N1CCCCCCC1)C(=O)OC', 'Condition not met'),
  ('CCOC(=O)C1=C[C@@H](C(C)(C)C)N(S(=O)(=O)c2ccc(C)cc2)[C@H]1c1ccccc1', 'Condition met');

---

Tgt: Neurogenic locus notch homolog protein 2 (Homo sapiens)
Procedure Text: Notch2 binders on small-molecule microarrays, primary screen, biochemical, small-molecule microarray, 635 nm fluorescence, stem cell growth factors (AID 1073)
Condition Notes: Notch2 binding, higher = more signal
Threshold rule: composite z-score greater than or equal to 0.6 is label 1; below that, label 0.

INSERT INTO assay_data (line_notation, class_label) VALUES
  ('COC(=O)[C@@]1(Cc2ccc(F)cc2)[C@H]2c3cc(C(=O)N4CCCC4)n(C)c3C[C@H]2CN1C(=O)c1ccccc1', 'label 1'),
  ('C=C(C(=O)CC[C@H](OC(=O)c1ccccc1-c1ccccc1C(=O)O)c1ccccc1OCCO)C(C)C', 'label 0'),
  ('CO[C@H]1O[C@H](CO)[C@@H](OC(=O)Nc2ccc(C#N)cc2)[C@@H]2OC(=O)[C@H](Cc3cccc(Br)c3)C/C=C/C[C@@H](Cc3cccc(Br)c3)C(=O)O[C@@H]12', 'label 1'),
  ('COc1cccc(/C=C(\C#N)C(=O)Nc2c(C)n(C)n(-c3ccccc3)c2=O)c1', 'label 1'),
  ('COCCOC(=O)N1C(=O)[C@@]2(c3ccccc31)[C@H](c1ccccc1OCCO)N1[C@H](c3ccccc3)[C@H](c3ccccc3)OC(=O)[C@H]1[C@@H]2C(=O)N1CCCCCCC1', 'label 1'),
  ('C=C(/C(=C/C[C@H](OC(=O)c1ccncc1)c1ccccc1OCCO)c1cnc2ccccc2c1)C(C)C', 'label 1');

Values compiled from PubChem BioAssay.
